target: purified human C5 (Homo sapiens, UniProt P01031); experiment: Red blood cell hemolysis assay, optical, absorbance 412 nm (Example 3, Table 6); assay type: cell-based; details: antibody-sensitized sheep erythrocytes, 1.5% human C5 depleted sera, 0.5 nM human C5; average where replicates
Sequence (P01031 19-1676): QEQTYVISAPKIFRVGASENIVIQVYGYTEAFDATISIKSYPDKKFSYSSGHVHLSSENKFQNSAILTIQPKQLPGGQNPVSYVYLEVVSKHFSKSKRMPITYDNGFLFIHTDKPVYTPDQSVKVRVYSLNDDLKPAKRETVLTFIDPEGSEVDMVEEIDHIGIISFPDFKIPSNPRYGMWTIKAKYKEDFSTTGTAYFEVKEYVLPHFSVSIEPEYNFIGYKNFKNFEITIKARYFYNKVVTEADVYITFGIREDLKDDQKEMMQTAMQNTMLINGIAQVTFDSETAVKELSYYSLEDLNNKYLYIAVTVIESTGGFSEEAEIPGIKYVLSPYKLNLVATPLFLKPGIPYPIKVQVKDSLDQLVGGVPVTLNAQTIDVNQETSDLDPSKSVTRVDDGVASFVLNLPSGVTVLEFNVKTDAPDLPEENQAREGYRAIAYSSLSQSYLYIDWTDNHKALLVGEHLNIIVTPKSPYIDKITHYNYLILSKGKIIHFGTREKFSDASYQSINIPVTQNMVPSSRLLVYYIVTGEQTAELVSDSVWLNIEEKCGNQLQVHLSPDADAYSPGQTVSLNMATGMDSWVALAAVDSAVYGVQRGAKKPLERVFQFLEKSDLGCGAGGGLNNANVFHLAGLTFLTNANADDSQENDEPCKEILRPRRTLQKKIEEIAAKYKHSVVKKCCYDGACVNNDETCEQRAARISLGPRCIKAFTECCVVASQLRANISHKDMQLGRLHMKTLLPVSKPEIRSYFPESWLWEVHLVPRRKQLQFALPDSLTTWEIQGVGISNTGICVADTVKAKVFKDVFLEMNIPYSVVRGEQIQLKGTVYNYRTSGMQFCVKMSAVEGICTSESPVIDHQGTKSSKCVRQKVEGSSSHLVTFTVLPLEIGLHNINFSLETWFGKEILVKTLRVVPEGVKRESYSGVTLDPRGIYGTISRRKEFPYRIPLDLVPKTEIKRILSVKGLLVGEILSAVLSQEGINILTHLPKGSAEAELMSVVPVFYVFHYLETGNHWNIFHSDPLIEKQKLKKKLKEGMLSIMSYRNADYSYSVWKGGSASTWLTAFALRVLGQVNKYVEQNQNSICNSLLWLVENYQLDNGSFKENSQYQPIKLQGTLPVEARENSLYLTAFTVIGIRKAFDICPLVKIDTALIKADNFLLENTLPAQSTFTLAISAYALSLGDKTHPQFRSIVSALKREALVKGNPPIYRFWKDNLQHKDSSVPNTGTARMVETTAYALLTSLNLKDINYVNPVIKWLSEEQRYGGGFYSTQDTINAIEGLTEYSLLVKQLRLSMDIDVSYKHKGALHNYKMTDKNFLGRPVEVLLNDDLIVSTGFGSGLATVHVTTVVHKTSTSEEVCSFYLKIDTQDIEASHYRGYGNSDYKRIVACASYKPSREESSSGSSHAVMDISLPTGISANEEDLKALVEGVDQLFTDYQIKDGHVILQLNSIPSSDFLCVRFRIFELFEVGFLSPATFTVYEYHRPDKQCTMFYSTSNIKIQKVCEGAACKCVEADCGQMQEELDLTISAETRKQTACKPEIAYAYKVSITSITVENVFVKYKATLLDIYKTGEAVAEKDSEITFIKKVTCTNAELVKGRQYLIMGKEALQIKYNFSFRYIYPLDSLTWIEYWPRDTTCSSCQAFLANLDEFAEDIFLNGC
Known IC50 of a selection of compounds
value kind: IC50 (nM)

> print(dat)
                                    compound  value.kind  reading
 1     COc1ccc(NC(=O)NCc2ccccc2)cc1OCCCC(C)C        IC50      685
 2  CC(C)CCCOc1cccc(NC(=O)N[C@@H](CO)c2ccccc2)c1        IC50     8600
 3  COc1ccc(NC(=O)N[C@@H](CO)c2ccccc2)cc1OCCCCl        IC50     3060
 4      COc1ccc(NC(=O)NCc2cscn2)cc1OCCCC(C)C        IC50     4390
 5  COc1ncc(NC(=O)N[C@@H](CO)c2ccccc2)cc1OCCCC(C)C        IC50     2130
 6   COc1ccc(NC(=O)N[C@@H](CO)c2ccccc2)cc1Br        IC50     4470
 7  COc1ccc(NC(=O)NCc2ccc3[nH]ccc3c2)cc1OCCCC(C)C        IC50      581
 8  COc1ccccc1CNC(=O)Nc1ccc(OC)c(OCCCC(C)C)c1        IC50      125
 9      COc1ccc(NC(=O)NCc2cccs2)cc1OCCCC(C)C        IC50     3100
10  COc1ccc(NC(=O)N(C)CC(O)c2ccc(O)cc2)cc1OCCCC(C)C (stereo not shown)        IC50     8660
11    COc1ccc(NC(=O)NCc2ccncc2)cc1C#CCCC(C)C        IC50     2240
12   COc1ccc(NC(=O)NCc2ccccc2OC)cc1CCCCC(C)C        IC50      165
13  COc1ccc(NC(=O)NC(CO)c2ccccc2F)cc1OCCCC(C)C (stereo not shown)        IC50      614
